Kindly supply the reported IC50 values for the records listed here.
test system: splenic cells of Lewis rats; assay: Test 2: Determination of T-cell growth inhibitor activity (T lymphocyte blastogenesis test); assay type: cell-based; settings: Lewis rat splenic cells, Concanavalin A (1 μg/ml), 72 hours, AlamarBlue Assay, read-out: Test 2: T-cell growth inhibitory activity IC50
Square brackets hold non-standard residues; d marks the D form. Peptide text beside a SMILES is read from it. Aoda(9S-OH) = C[C@H](O)C(=O)CCCCC[C@H](N)C(=O)O; Phe(4-CN) = N#Cc1ccc(C[C@H](N)C(=O)O)cc1; Iva = CC[C@](C)(N)C(=O)O

Observe how each entry below is paired with its result.
CC[C@]1(C)NC(=O)[C@H](CCCCCC(=O)[C@@H](C)O)NC(=O)[C@H]2CCCN2C(=O)[C@H](Cc2ccc(O)cc2)NC1=O [Compound E8] | < 50 nM
CC[C@]1(C)NC(=O)[C@H](CCCCCC(=O)[C@H](C)O)NC(=O)[C@H]2CCCN2C(=O)[C@H](Cc2ccc(C#N)cc2)NC1=O [Compound E23] (cyclo([Iva][Phe(4-CN)][dP][Aoda(9S-OH)])) | < 50 nM

query: Returns the measured IC50 for the input compound. Input: CC[C@]1(C)NC(=O)[C@H](CCCCCC(=O)[C@@H](C)O)NC(=O)[C@H]2CCCN2C(=O)[C@H](Cc2ccc(F)cc2)NC1=O [Compound E17]
result: < 50 nM
